- Tested on: high affinity rolipram binding form of PDE IV (HPDE IV)
- assay: [3H]-rolipram binding assay (competition for high affinity site)
- Parameters: species or system rat
- conditions: HPDE IV IC50 / LPDE IV IC50
Each entry below carries its recorded High/Low Ratio (IC50 high affinity form divided by IC50 low affinity form).
Please give only the number in your answer, with no unit.

Below, each entry is followed by its recorded High/Low Ratio (IC50 high affinity form divided by IC50 low affinity form) result.
OCCN(CCO)c1nc(N2CCCCC2)c2nc(N(CCO)CCO)nc(N3CCCCC3)c2n1 [dipyridamole, reference compound]
6.25
COc1ccc(C2CCC(c3nnn[nH]3)C2)cc1OC1CCCC1 (stereo not drawn)
0.0018

# query: High/Low Ratio (IC50 high affinity form divided by IC50 low affinity form) of entry COC(=O)C1CC(C#N)(c2ccc(OC(F)F)c(OCC3CC3)c2)CCC1=O (stereo not drawn)
3.571

# query: High/Low Ratio (IC50 high affinity form divided by IC50 low affinity form) of entry CCOC(=O)C=C1C[C@H](c2ccc(OC)c(OC3CCCC3)c2)CN1
2.143
